The measurements presented in this section are drawn from patent US20190315775A1.

assay: Water solubility of drugs (saturation concentration by HPLC); assay type: physicochemical; conditions: relative to TC11; 100 mM Tris-HCl (pH 7.5)
Assignment: determine reported Water solubility, relative ratio (numerals in parentheses) for the given compounds.
One number for each entry, in ×.

COCCOCCOCCOCCOCCOCCOCCOCCOCCOCCOCCOCCOc1cc2c(cc1N)C(=O)N(c1c(C(C)C)cccc1C(C)C)C2=O [PEG11(O)-TC11] | 735

Look at each compound and report its Water solubility, relative ratio (numerals in parentheses).
1. CC(C)c1cccc(C(C)C)c1N1C(=O)c2cc(N)c(OCCO)cc2C1=O [HOEtO-TC11, hydroxyethoxy-TC11]
2. CC(C)c1cccc(C(C)C)c1N1C(=O)c2cc(N)c(OCCO[C@@H]3OC(CO)[C@@H](O)[C@H](O)C3O)cc2C1=O (stereo partly drawn) [Glu-TC11]
3. CC(C)c1cccc(C(C)C)c1N1C(=O)c2ccc(N)cc2C1=O [TC11, reference compound]

Output:
[13.5, 41, 1]

Please fill in: Water solubility, relative ratio (numerals in parentheses) reported for COCCOCCOCCOCCOCCC(=O)OCCOc1cc2c(cc1N)C(=O)N(c1c(C(C)C)cccc1C(C)C)C2=O [PEG5(E)-TC11] = 1
